B1: ELF3 (parent)
chain: LSKEYWDCLEGKKSKHAPRGTHLW

Variants of: B1
Assay: protein stability index of a GFP-peptide fusion (GPS, HEK-293T) (PSI 1-6); higher = more stable;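 also: lentivirally expressed fusions sorted by FACS into six bins by GFP to DsRed ratio, PSI derived from sequencing read proportions per bin multiplied by bin number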
Conditions: c terminus: a fixed tail appended
metric: protein stability index
Lab note: record just the number, no unit beside it.

# variant `K15Y` ; its protein stability index = 1.83

# variant `H22S` ; its protein stability index = 3.1

Consider `K3Y` . Its measured protein stability index is 2.6

Form field protein stability index, entry `L1R` : 2.96

Memo: `E10K` , reported protein stability index: 2.18

Lab note: measured protein stability index of `W24K` was 4.11

Please fill in: protein stability index reported for `C8A` = 3.1

Per the records, this variant ( `G20P` ) has protein stability index equal to 2.72

The reported value for `C8W` in terms of protein stability index is 2.17

Form field protein stability index, entry `W6N` : 3.42

Form field protein stability index, entry `E10N` : 2.55

Entry under test: `K3N` . Its protein stability index was 2.97

Reported protein stability index for `C8P` was 2.04

protein stability index measured on `L9N` = 3.81

Kindly note the recorded protein stability index for `P18F` , which is 2.97

Recorded result, `K3M` , protein stability index: 2.33

`G11C` has a reported protein stability index of 2.27

protein stability index reported for this variant `L1T` : 2.53

The reported protein stability index of the variant `S14A` was 2.81

Measured protein stability index of `K13N` : 2.36

Summary for this variant, `G11W` : protein stability index is 1.82

Noted for `K3T` : its protein stability index reads 2.83

Reported protein stability index ( `C8H` ) = 3.06

response.value for `K3Q` (field: protein stability index) = 2.13

Consider `K12D` . Its measured protein stability index is 3.4

Looking up `L9Y` , I found its protein stability index recorded as 2.84

Documented protein stability index of `K12C` : 1.97

protein stability index reported for this variant `A17E` : 3.58

Measured protein stability index, `E4D` : 2.8

// recorded protein stability index for `L23D` : 4.24

Given item `K15W` , the value recorded as its protein stability index is 2.93

The variant `K3S` showed protein stability index equal to 2.61

Value of protein stability index reported for the variant `T21N` is 3.1

Item: `W24Q` | protein stability index: 3.8

Record `W24N` , field protein stability index: 3.64

The variant listed as `K13A` has a reported protein stability index of 2.76

Form: variant = `K15F` ; protein stability index = 2.74

Form: variant = `T21D` ; protein stability index = 3.45

Item: `S14K` | protein stability index: 3.08

# protein stability index of `E10Q` = 2.73

protein stability index reading for `W24G` : 4.07

protein stability index measured on `K15V` = 2.64

Form: variant = `K13R` ; protein stability index = 2.87

Per the record, `T21F` has protein stability index of 2.05

Field protein stability index (entry `K13Y` ) reads 2.82

So for `W6C` , the logged protein stability index turned out to be 3.38

// protein stability index lookup, variant = `H22K` , result: 2.99

Reported protein stability index ( `L23C` ) = 3.11

The variant listed as `A17T` has a reported protein stability index of 2.86

The variant listed as `L9T` has a reported protein stability index of 2.93

Sample `E10T` ; protein stability index observed: 2.1

Looking up `K15N` , I see its protein stability index listed as 2.79

Briefly, protein stability index measured for `W24A` : 3.96

For this variant ( `H16A` ), measured protein stability index is 2.72

Entry `T21A` ; protein stability index = 3.4

The recorded protein stability index for `A17R` is 2.38

GET /value?item= `H22M` &field=protein stability index returns 2.37

Query `H22G` yields protein stability index of 2.68

Lab note: measured protein stability index of `P18K` was 3.39

// sample `W6M` , its protein stability index was 3.56

Looking up `G20L` , I see its protein stability index listed as 2.55

// field: protein stability index; key: `H22T` ; value = 2.84

get_value(item= `W6Y` , readout=protein stability index) returns 3.22

Noted for `T21G` : its protein stability index reads 2.54

Measured protein stability index, `P18H` : 3.24

Field protein stability index (entry `L1M` ) reads 2.06

// recorded protein stability index for `W24F` : 3.6

Reported protein stability index for `K15D` was 3

// protein stability index value for `C8Y` : 2.74

Record `E10W` . Reported protein stability index: 2.08

Measured protein stability index of `H22F` : 1.92

The variant listed as `D7V` has a reported protein stability index of 2.44

Briefly, protein stability index measured for `A17G` : 3.65

`K13Q` has a reported protein stability index of 3.17

Quick note, protein stability index for `R19Q` landed at 3.79

Recorded protein stability index (variant `W24E` ): 4.33

Sure, the documented protein stability index for `S2Q` is 2.78

The reported value for `L9K` in terms of protein stability index is 2.92

Looking up `R19C` , I found its protein stability index recorded as 2.6

Sure, the documented protein stability index for `D7W` is 1.89

The measured protein stability index associated with `G20C` reads 2.73

Note to self: protein stability index recorded for `K15C` was 2.29

Value of protein stability index reported for the variant `P18C` is 2.53

Form field protein stability index, entry `H22W` : 1.95

// field: protein stability index; key: `A17S` ; value = 3.12

# variant `Y5D` ; its protein stability index = 3.41

// protein stability index value for `P18M` : 2.31

Given item `Y5K` , the value recorded as its protein stability index is 3.19

For reference, reported protein stability index for `E4A` stands at 2.23

protein stability index in this record for `K15L` : 2.16

What the record says about `P18E` : protein stability index is 3.01
